Biological target: P2X7 receptor (Mus musculus, UniProt Q9Z1M0)
Construct: P2X7 receptor expressed in peritoneal macrophages; endogenous in cells
Sequence (Q9Z1M0 whole entry): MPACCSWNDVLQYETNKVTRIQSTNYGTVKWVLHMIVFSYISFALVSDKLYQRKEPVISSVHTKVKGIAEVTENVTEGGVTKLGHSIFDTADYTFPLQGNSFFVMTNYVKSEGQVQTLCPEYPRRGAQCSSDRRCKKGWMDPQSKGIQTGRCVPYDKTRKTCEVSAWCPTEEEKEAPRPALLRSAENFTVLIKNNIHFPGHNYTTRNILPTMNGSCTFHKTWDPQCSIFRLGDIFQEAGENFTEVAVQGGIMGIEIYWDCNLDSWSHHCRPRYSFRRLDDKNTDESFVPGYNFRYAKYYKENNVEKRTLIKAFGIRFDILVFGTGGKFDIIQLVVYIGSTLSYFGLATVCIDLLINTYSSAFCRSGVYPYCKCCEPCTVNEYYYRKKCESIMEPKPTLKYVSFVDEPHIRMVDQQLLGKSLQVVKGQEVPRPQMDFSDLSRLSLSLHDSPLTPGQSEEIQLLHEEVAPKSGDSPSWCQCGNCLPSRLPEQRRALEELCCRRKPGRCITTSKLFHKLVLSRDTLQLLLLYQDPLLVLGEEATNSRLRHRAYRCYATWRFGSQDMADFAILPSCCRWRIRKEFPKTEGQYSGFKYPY
Test: ATP-induced propidium iodide dye uptake assay (P2X7R-associated pore formation)
Conditions: peritoneal macrophages, pretreatment 10 min, 5 mM ATP 15 min; read-out: IC50 ATP-induced PI uptake
pIC50: −log10 of the molar value.
# maps each entry to its pIC50
testReadout: pIC50

# smilesText, reportedMeasurement
data = [
    ("O=C1C=C(Nc2ccc(NS(=O)(=O)c3ccccc3)cc2)C(=O)c2ccccc21", 6.00),
    ("O=C1C=C(Nc2ccc(NS(=O)(=O)c3ccc(F)cc3)cc2)C(=O)c2ccccc21", 6.52),
    ("O=C1C(Cl)=C(Nc2ccc(NS(=O)(=O)c3ccc([N+](=O)[O-])cc3)cc2)C(=O)c2ccccc21", 8.00),
    ("O=C1C(Cl)=C(Nc2ccc(NS(=O)(=O)c3ccc4ccccc4c3)cc2)C(=O)c2ccccc21", 8.10),
    ("Cc1ccc(S(=O)(=O)Nc2ccc(NC3=CC(=O)c4ccccc4C3=O)cc2)cc1", 7.15),
]

====

Tested on: mouse peritoneal cells
Test: LDH release cytotoxicity assay
Type: cell-based
Conditions: 24 h, increasing concentrations
# maps each entry to its IC50 values (CC50), LDH activity
testReadout: IC50 values (CC50), LDH activity (µM)

# smilesText, reportedMeasurement
rows = [
    ("O=C1C(Cl)=C(Nc2ccc(NS(=O)(=O)c3ccc([N+](=O)[O-])cc3)cc2)C(=O)c2ccccc21", 351),
    ("Cc1ccc(S(=O)(=O)Nc2ccc(NC3=CC(=O)c4ccccc4C3=O)cc2)cc1", 322),
    ("O=C1C=C(Nc2ccc(NS(=O)(=O)c3ccc(F)cc3)cc2)C(=O)c2ccccc21", 298),
    ("O=C1C(Cl)=C(Nc2ccc(NS(=O)(=O)c3ccc4ccccc4c3)cc2)C(=O)c2ccccc21", 401),
    ("O=C1C=C(Nc2ccc(NS(=O)(=O)c3ccccc3)cc2)C(=O)c2ccccc21", 201),
]

====

Target: hP2X7R (Homo sapiens, UniProt Q99572)
Construct: The monocytic THP-1 cell line used in this experiment was donated; endogenous in cells; host or cells: THP-1 human monocytic cell line
Sequence (Q99572 1-595): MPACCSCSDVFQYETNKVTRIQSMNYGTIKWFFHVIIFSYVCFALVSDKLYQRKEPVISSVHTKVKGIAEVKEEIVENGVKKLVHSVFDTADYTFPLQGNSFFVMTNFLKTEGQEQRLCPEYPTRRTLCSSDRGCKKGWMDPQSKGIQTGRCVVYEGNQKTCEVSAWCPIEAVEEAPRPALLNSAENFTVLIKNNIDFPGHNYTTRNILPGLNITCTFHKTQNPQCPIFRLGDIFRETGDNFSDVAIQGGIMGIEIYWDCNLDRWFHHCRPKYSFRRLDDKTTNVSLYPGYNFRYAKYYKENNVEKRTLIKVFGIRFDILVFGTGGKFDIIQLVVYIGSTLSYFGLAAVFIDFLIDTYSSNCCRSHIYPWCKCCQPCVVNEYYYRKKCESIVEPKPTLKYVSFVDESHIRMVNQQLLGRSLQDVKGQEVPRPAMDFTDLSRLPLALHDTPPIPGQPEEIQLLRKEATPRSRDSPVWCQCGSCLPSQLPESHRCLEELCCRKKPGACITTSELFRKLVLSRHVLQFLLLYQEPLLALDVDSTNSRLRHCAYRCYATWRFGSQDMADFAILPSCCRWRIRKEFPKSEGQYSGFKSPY
Assay: ATP-induced IL-1β release ELISA in THP-1 cells
Assay type: cell-based
Conditions: human THP-1 cells, LPS 4 h, ATP 30 min

# molecule, IC50
rows = [
    ("O=C1C=C(Nc2ccc(NS(=O)(=O)c3ccccc3)cc2)C(=O)c2ccccc21", "4 µM"),
    ("O=C1C(Cl)=C(Nc2ccc(NS(=O)(=O)c3ccc4ccccc4c3)cc2)C(=O)c2ccccc21", "0.02 µM"),
    ("O=C1C=C(Nc2ccc(NS(=O)(=O)c3ccc(F)cc3)cc2)C(=O)c2ccccc21", "3 µM"),
    ("O=C1C(Cl)=C(Nc2ccc(NS(=O)(=O)c3ccc([N+](=O)[O-])cc3)cc2)C(=O)c2ccccc21", "0.3 µM"),
    ("Cc1ccc(S(=O)(=O)Nc2ccc(NC3=CC(=O)c4ccccc4C3=O)cc2)cc1", "1 µM"),
    ("COc1ccc(CC(=O)NC(N=C(NC#N)Nc2cccc3ncccc23)C(C)(C)C)cc1OC (stereo not shown) [Compound A740003, reference compound]", "0.85 µM"),
    ("CCOc1ccc(Nc2ccc(/C(=C3C=C/C(=[N+](/CC)Cc4cccc(S(=O)(=O)[O-])c4)C=C/3C)c3ccc(N(CC)Cc4cccc(S(=O)(=O)O)c4)cc3C)cc2)cc1 [BBG, Brilliant Blue G, reference compound]", "16 µM"),
]
